// data source = PubChem BioAssay (NCI)

test system: SK-MEL-5 melanoma; test: NCI tumour cell line growth inhibition, 48 h
observation_type: GI50

Simply: CCCCC(=O)OCC1OC(n2cnc3c(=S)nc[nH]c32)C(OC(=O)CCCC)C1OC(=O)CCCC (stereo unspecified) , SK-MEL-5 melanoma, GI50 = 1760 nM

Entry Cc1ccc(CS/C(=C\c2ccc([N+](=O)[O-])cc2)C(=O)c2ccc(F)cc2)cc1 under SK-MEL-5 melanoma had GI50 of 2400 nM

# value of GI50, SK-MEL-5 melanoma, item CC1=C(CCCNS(C)(=O)=O)C2=C(C)C3(CC3)[C@@](C)(O)C(=O)C2=C1 = 492 nM

Let me check: O=C1OCc2c1cc1ccc(O)c(OC3OC(CO)C(O)C(O)C3O)c1c2-c1ccc2c(c1)OCO2 (stereo unspecified) , system SK-MEL-5 melanoma, measured GI50 is 26200 nM

Entry CCCCC/C(C=C(C#N)C#N)=C/c1ccccc1 : GI50 on SK-MEL-5 melanoma = 2680 nM

The value of GI50 recorded for CSc1cc(N=Nc2nc3ccccc3s2)c2ccccc2c1O when tested on SK-MEL-5 melanoma reads 6430 nM

* * *

test system: SN12C renal; assay: NCI tumour cell line growth inhibition, 48 h
observation_type: TGI

Sample COc1ccc(C2CC(c3c(O)ccc4ccccc34)=NN2c2ccc([N+](=O)[O-])cc2[N+](=O)[O-])cc1OC (configuration not stated) ; TGI observed: > 100 µM

The measured TGI associated with CN1C(=O)N(c2ccccc2)C2(CCN(CC3COc4ccccc4O3)CC2)C1=O (configuration not stated) reads > 100 µM

Reported TGI of CCCCC(=O)OCC1OC(n2cnc3c(=S)nc[nH]c32)C(OC(=O)CCCC)C1OC(=O)CCCC (configuration not stated) : > 100 µM

The reported value for OC1C2[C@@H](O)CCCN2C[C@@H](O)[C@H]1O (some centres not stated) in terms of TGI is > 100 µM

Record summary for O=C1CCC[C@@H]2NC[C@@H](c3ccc4c(c3)OCO4)[C@H]12 : reported TGI = > 25 µM

Lookup result for COCCOCOc1ccc(OCc2ccccc2)cc1 ; measured TGI: > 100 µM

Per the record, O=C1/C(=C/c2ccc(Br)cc2)C=C(c2ccccc2)N1CCc1ccccc1 has TGI of 20.4 µM

For COc1cccc(-c2cc(=O)c3cc(N(C)C)ccc3[nH]2)c1 the molecule record lists TGI as > 100 µM

TGI recorded for this molecule, Brc1ccc(CCNCCN2CCCCC2)cc1 , is 58.5 µM

TGI measured on O=c1nc(N2CCN(c3ccccc3)CC2)ccn1C1OC(CO)C(O)C1O (configuration not stated) = > 100 µM

The molecule listed as c1ccc2c(c1)OC(N1CCCC1)c1cnc(N3CCCC3)nc1-2 (configuration not stated) has a reported TGI of > 100 µM

Measured TGI of CC1(C)OCC(COC(=O)C=[N+]=[N-])O1 (configuration not stated) : > 100 µM

Kindly note the recorded TGI for O=C1NNC=Nc2ccc(cc2)S(=O)(=O)c2ccc(cc2)N=CNNC1=O , which is > 100 µM

Form: molecule = COc1ccc(N2C(=O)C3c4[nH]c5ccc(OCc6ccccc6)cc5c4C4CCC(C(C)(C)C)CC4C3C2=O)cc1 (configuration not stated) ; TGI = > 100 µM

The molecule listed as CN(CCC#N)c1ccc(/C=C2\SC(=S)NC2=O)cc1 shows TGI equal to > 100 µM

Sure, the documented TGI for CCOc1cc(NC(C)=O)ccc1C(=O)NNC(=O)c1ccccc1OC(C)=O is > 91.4 µM

So for C[N+]1=C2[B-](C(C)(C)C)=[N+](C(C)(C)C)[B-]2(C(C)(C)C)[N+](C)=C2[B-](C(C)(C)C)=[N+](C(C)(C)C)[B-]21C(C)(C)C (configuration not stated) , the logged TGI turned out to be > 100 µM

# TGI of O=c1oc2ccc(F)cc2c(=O)n1-c1ccc(F)cc1F = 13.7 µM

Just so you know, measured TGI for Cc1cc(N(CCC#N)CCC#N)ccc1/C=N/NC(=O)c1cc(Cl)ccc1O came out at > 100 µM

In plain terms, N#Cc1ccc(C#Cc2ccccc2C#CCCCCO)cc1 has a documented TGI of 31.8 µM

Lab book: TGI of CCNCCNc1cc(-c2ccc(C(=O)OC)cc2)c(C#N)c2nc3ccccc3n12 noted as 8.33 µM

TGI measured on O=C(CN1CCOCC1)Nc1ccc(Cn2nnc3c2C(=O)c2nnn(Cc4ccc(NC(=O)CN5CCOCC5)cc4)c2C3=O)cc1 = 0.733 µM
